Origin of the recorded values: paper PMC5900025

System: J774A.1 macrophage cell line (ATCC TIB-67)
Test: Cytotoxicity assay (resazurin)
Format: cell-based
Conditions: Mus musculus, J774.A1; J774A.1 cells; concentration maintaining viability of 50% of the cells
Task for the reader: assign each of the following compounds its reported IC50.
Dear colleague, please return just the value in µM, with no unit written.

Need IC50 of NNC(=O)c1ccncc1 [INH, isoniazid, reference compound] , thanks. 3730

Looking for the measured IC50 of CC1(C)CCC2=C(O1)C(=O)c1ccccc1C2=O , can you help? 285

Look at this compound and give its reported IC50. C=CCOC1=CC(=O)c2ccccc2C1=O 173

----------
Assignment: determine reported pIC50 for the given compounds.
System: J774A.1 macrophage cell line (ATCC TIB-67)
Assay: Cytotoxicity assay (resazurin)
Type: cell-based
Details: Mus musculus, J774.A1; J774A.1 cells; concentration maintaining viability of 50% of the cells
pIC50: −log10 of the molar value.

May I ask what pIC50 has been recorded for O=C1C=C(Nc2ccccc2)C(=O)c2ccccc21 ? < 3.10

Can you share its pIC50? I mean this compound: CC1(C)CC2=C(O1)C(=O)c1ccccc1C2=O < 3.06

Entry CO[C@H]1/C=C/O[C@@]2(C)Oc3c(C)c(O)c4c(O)c(c(/C=N/N5CCN(C)CC5)c(O)c4c3C2=O)NC(=O)/C(C)=C\C=C\[C@H](C)[C@H](O)[C@@H](C)[C@@H](O)[C@@H](C)[C@H](OC(C)=O)[C@@H]1C [RIF, rifampicin, reference compound] has what pIC50? < 2.60
